target: Plasma kallikrein (KLKB1) (Homo sapiens); experiment: Substrate activity at recombinant human C-terminal His6-tagged KLKB1 (Pro19 to Ser262 residues) expressed in mammalian expression system assessed as Km measured after 30 to 60 mins by LC-MS analysis; type: ADME
Sequence (P03952 20-390 limits assumed): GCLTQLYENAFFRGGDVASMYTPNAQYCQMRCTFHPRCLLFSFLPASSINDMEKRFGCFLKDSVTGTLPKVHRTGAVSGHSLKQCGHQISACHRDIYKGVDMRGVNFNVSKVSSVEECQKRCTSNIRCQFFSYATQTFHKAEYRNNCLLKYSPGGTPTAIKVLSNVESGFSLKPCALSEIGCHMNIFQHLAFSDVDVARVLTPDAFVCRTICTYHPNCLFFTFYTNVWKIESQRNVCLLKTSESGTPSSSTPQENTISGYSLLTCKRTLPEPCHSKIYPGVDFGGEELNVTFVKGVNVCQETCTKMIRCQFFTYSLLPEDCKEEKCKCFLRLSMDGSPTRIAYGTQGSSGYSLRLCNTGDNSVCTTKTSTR
Sequence (P03952 391-638 limits assumed): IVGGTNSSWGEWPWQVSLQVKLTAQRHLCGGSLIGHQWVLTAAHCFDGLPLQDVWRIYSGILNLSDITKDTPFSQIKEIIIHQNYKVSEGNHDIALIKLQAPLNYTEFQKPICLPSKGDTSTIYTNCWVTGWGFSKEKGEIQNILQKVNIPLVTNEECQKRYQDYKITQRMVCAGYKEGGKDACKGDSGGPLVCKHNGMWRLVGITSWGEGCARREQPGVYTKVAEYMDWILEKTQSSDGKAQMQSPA
assay_readout: Km (µM)
Give a bare numeral; the unit µM is implied.

stdin: Request the reported Km associated with H-SLSSMTRVVGG-OH
stdout: 2.4

Entry source: ChEMBL document CHEMBL4400521
